Protocol description: qHTS to identify inhibitors of the type 1 interferon - major histocompatibility complex class I in skeletal muscle: Secondary screen by immunofluorescence; further: nearly all actives have a fitted effect of over 70% in size; further: potency means the concentration at half of the fitted maximal effect
Particulars: C25cl48 myoblasts, IFN-b induced HLA-ABC immunofluorescence, 24 h; series mostly up to 49.8 µM
Results filed as inconclusive are left out. Activity calls are given as the source filed them. The call rests on the fitted dose curve; in most records, active means well fitted inhibition curve with a large enough effect; inconclusive means small, poorly fitted or top-dose-only effect; inactive means no such curve, though single readings can be large or run the other way.

Compound | Potency
CCCC(=O)O[C@]1(C(=O)CO)CC[C@H]2[C@@H]3CCC4=CC(=O)CC[C@]4(C)[C@H]3[C@@H](O)C[C@@]21C | inactive
COc1cccc2c1C(=O)c1c(O)c3c(c(O)c1C2=O)C[C@@](O)(/C(CO)=N/NC(=O)CCCCCN1C(=O)C=CC1=O)C[C@@H]3O[C@H]1C[C@H](N)[C@H](O)[C@H](C)O1 | 1020 nM (active)
CN1C/C=C/CCOc2cccc(c2)-c2ccnc(n2)Nc2cccc(c2)C1 | 115 nM (active)
CO[C@@H]1[C@@H](O)[C@H](O)[C@@H](n2c3c(Cl)cccc3c3c4c(c5c6cccc(Cl)c6[nH]c5c32)C(=O)NC4=O)O[C@H]1CO | inactive
COc1ccc(F)c(F)c1C(=O)c1cnc(NC2CCN(S(C)(=O)=O)CC2)nc1N | 914 nM (active)
CCN1CCN(Cc2ccc(NC(=O)Nc3ccc(Oc4cc(NC)ncn4)cc3)cc2C(F)(F)F)CC1 | 1620 nM (active)
COc1cc2c(cc1-c1c(C)noc1C)ncc1[nH]c(=O)n([C@H](C)c3ccccn3)c12 | 4080 nM (active)
O=C1NCCc2[nH]c(-c3ccncc3)cc21 | 2570 nM (active)
Cc1ccc2nc(NCCN)c3ncc(C)n3c2c1 | 4080 nM (active)
Fc1cccc(-n2cnc3c(NCc4nc5c(F)c(F)ccc5[nH]4)nc(N4CCOCC4)nc32)c1 | 289 nM (active)
CC(C)c1c2cc(-c3ccnc(NC4CCC(NC5CCOCC5)CC4)n3)ccc2nn1C (stereo not drawn) | 145 nM (active)
C#Cc1cccc(Nc2ncnc3cc(OC)c(OCCCCCCC(=O)NO)cc23)c1 | 289 nM (active)
Cc1[nH]nc2ccc(-c3cncc(OC[C@@H](N)Cc4ccccc4)c3)cc12 | 726 nM (active)
COc1ccc(CNc2nc(N(CCO)CCO)nc3c2ncn3C(C)C)cc1 | 8140 nM (active)
CC(C)c1nn(-c2c(Cl)cccc2Cl)c2nc(Cc3ccc(OCCO)cc3)[nH]c(=O)c12 | 22.9 nM (active)
Cc1[nH]c2ccccc2c1CCNCc1ccc(/C=C/C(=O)NO)cc1 | 22.9 nM (active)
CC1(C)CC(=O)c2c(C(F)(F)F)nn(-c3ccc(C(N)=O)c(NC4CCC(O)CC4)c3)c2C1 (stereo not drawn) | 32.4 nM (active)
C=C1C(=O)O[C@H]2C[C@H](C)C(/C=C/C(C)=O)=CC[C@H]12 | 5760 nM (active)

Where do these numbers come from? They come from PubChem BioAssay AID1347414.
